- Tested on: P. aeruginosa (PA)
- assay.notes: MIC by microdilution, 36 clinical and laboratory strains with known efflux phenotype
- Type: cell-based
- details: strain 156, efflux EF + XY+, MHB
measured.metric: MIC

Identify MIC associated with the compound CC[C@H]1OC(=O)[C@@](C)(F)C(=O)[C@H](C)[C@@H](O[C@@H]2O[C@H](C)C[C@H](N(C)C)[C@H]2O)[C@](C)(OC)C[C@@H](C)C(=O)[C@H](C)[C@H]2N(CCCCn3cc(-c4cccc(N)c4)nn3)C(=O)O[C@]12C
64 mg/L

Identify MIC associated with the compound CC[C@H]1OC(=O)[C@H](C)[C@@H](O[C@H]2C[C@@](C)(OC)[C@@H](O)[C@H](C)O2)[C@H](C)[C@@H](O[C@@H]2O[C@H](C)C[C@H](N(C)C)[C@H]2O)[C@](C)(O)C[C@@H](C)C(=O)[C@H](C)[C@@H](O)[C@]1(C)O
512 mg/L

Identify MIC associated with the compound CC[C@H]1OC(=O)[C@H](C)[C@@H](O[C@H]2C[C@@](C)(OC)[C@@H](O)[C@H](C)O2)[C@H](C)[C@@H](O[C@@H]2O[C@H](C)C[C@H](N(C)C)[C@H]2O)[C@](C)(OC)C[C@@H](C)C(=O)[C@H](C)[C@@H](O)[C@]1(C)O
512 mg/L

Identify MIC associated with the compound CC[C@H]1OC(=O)[C@H](C)C(=O)[C@H](C)[C@@H](O[C@@H]2O[C@H](C)C[C@H](N(C)C)[C@H]2O)[C@](C)(OC)C[C@@H](C)C(=O)[C@H](C)[C@H]2N(CCCCn3cnc(-c4cccnc4)c3)C(=O)O[C@]12C
128 mg/L

Identify MIC associated with the compound CC[C@H]1OC(=O)[C@H](C)[C@@H](O[C@H]2C[C@@](C)(OC)[C@@H](O)[C@H](C)O2)[C@H](C)[C@@H](O[C@@H]2O[C@H](C)C[C@H](N(C)C)[C@H]2O)[C@](C)(O)C[C@@H](C)CN(C)[C@H](C)[C@@H](O)[C@]1(C)O
512 mg/L

Cited source for all entries: patent US9861616B2
